The entries below are paired with their reported composite z-score.
# protocol_text: compound binding in COS7 lysate, probe aLAP1, primary screen, cell lysate, small-molecule microarray (AID 1124);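 also: lysate comes from COS7 cells expressing LAP1 and is applied at 0.3 µg/mL; score merges spot fluorescence near 667 nm with signal-to-noise over triplicate slides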
# condition_description: probe aLAP1, fluorescence, higher = more signal
Reply briefly: the number, and no unit.

[[record]]
compound = "CC(CO)N1C(=O)[C@@H]2[C@H]3C(=O)OCC=C[C@H]3OC23C=CCN(c2ccc(Cl)cc2)C(=O)[C@@H]13 (stereo not given in full)"
measurement_name = "composite z-score"
number = -0.191


For record COc1ccc([Si](C)(C)[C@@H]2[C@@H](CC(=O)N3Cc4ccccc4C[C@H]3CO)O[C@]3(C(=O)N(Cc4ccc(N5CCC5=O)cc4)c4ccccc43)[C@H]2C)cc1 the listed composite z-score is 0.421

Please fill in: composite z-score reported for COCCCNC(=O)[C@@]1(Sc2ccc(C)cc2)CC(=O)N(Cc2ccccc2Cl)[C@@H]1c1ccc(CO)cc1I = -0.47

Query O=C1N[C@@H](Cc2ccccc2)C(=O)N2[C@@H]1C[C@@H](C(=O)O)[C@H]2c1ccc(O)cc1 yields composite z-score of 0.341

Sample C=C(COC)/C(=C/C[C@@H](OC(=O)c1ccncc1)c1ccccc1OCCO)c1cc(C(=O)OC)ccc1OC ; composite z-score observed: 0.748

The recorded composite z-score for COC(=O)[C@@]1(Cc2ccccc2CN=[N+]=[N-])N=C(c2ccc(OCCCO)cc2)O[C@H]1c1ccccc1CN=[N+]=[N-] is 0.017

Lab note: CCOC(=O)C1=CCN(S(=O)(=O)c2ccc(C)cc2)C1c1ccccc1 (stereo not given) gave composite z-score of 0.709

Looking up CN1C(=O)C2C=CC(C(O)c3ccc(F)cc3)N(NC(=O)OC(C)(C)C)C2C1=O (stereo not given) , I see its composite z-score listed as 0.215

get_value(item= C[C@]1(C(=O)O)c2ccccc2C(=O)N(Cc2ccc(OC(F)(F)F)cc2)[C@H]1c1ccc(CO)cc1 , readout=composite z-score) returns 0.902

Note to self: composite z-score recorded for COCCCNC(=O)[C@@H]1c2ccccc2C(=O)N(C2Cc3ccccc3C2)[C@H]1c1ccc(CO)cc1 was 0.59

Record summary for O=C(NCC(O)CO)[C@@]1(CCS(=O)(=O)c2ccccc2)COC(c2ccc(OCCCO)cc2)=N1 (stereo not given in full) : reported composite z-score = -0.0542

Item: COCCCNC(=O)[C@@]1(c2ccc([N+](=O)[O-])cc2)CC(=O)N(CC23CC4CC(CC(C4)C2)C3)[C@@H]1c1ccc(CO)cc1I | composite z-score: 0.159

Item: C=C(C)[C@@H]1CC=C(C(O)C2C=CC3C(=O)N(c4ccccc4)C(=O)C3N2Nc2ccc(C#N)cc2)CC1 (stereo not given in full) | composite z-score: 0.429

get_value(item= [N-]=[N+]=NCc1ccccc1[C@@H]1OC(c2ccc(OCCCO)cc2)=N[C@]1(Cc1ccccc1N=[N+]=[N-])C(=O)N1CCCCC1 , readout=composite z-score) returns 0.0904
